Biological target: T1, human plasmin (Homo sapiens, UniProt P00747)
T1 chain: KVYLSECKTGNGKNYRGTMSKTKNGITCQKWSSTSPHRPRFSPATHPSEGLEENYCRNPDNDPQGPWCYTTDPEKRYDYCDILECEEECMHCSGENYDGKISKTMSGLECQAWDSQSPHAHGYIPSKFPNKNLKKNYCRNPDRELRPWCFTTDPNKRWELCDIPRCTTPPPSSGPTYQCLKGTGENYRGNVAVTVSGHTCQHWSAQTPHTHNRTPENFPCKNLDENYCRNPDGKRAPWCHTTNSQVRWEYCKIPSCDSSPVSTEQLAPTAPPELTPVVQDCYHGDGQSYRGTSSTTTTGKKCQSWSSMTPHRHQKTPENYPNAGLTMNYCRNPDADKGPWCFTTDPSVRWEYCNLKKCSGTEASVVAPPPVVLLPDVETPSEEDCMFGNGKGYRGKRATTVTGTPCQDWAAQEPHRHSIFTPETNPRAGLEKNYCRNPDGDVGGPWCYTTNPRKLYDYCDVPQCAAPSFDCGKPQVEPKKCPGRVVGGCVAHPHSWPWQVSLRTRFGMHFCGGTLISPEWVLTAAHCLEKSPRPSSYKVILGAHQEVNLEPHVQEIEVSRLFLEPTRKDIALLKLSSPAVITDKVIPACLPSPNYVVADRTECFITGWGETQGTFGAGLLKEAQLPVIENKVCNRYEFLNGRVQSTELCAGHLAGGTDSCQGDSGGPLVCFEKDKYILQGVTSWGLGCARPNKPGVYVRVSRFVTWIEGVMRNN
REPORTED_ENDPOINT: Kd (nM)

{"columns": ["BINDER", "UNIT_SPEC", "OBSERVED_VALUE"],
 "data": [
  ["QS4 (protein) MHSFCAFKADDGPCKARFERFFFNIFTRQCEQFYYGGCDGNQNRFESLEECKKMCTRD", "nM", 2],
  ["SPI11 (protein) MHSFCAFKAETGPCRARFDRWFFNIFTRQCEEFIYGGCEGNQNRFESLEECKKMCTRD", "nM", 0.088]
]}

Attribution: patent US20050186649
